Where do these numbers come from? They come from patent US9119853B2.

target: GST-CypD / Con1 NS5A-His complex (Homo sapiens); experiment: ELISA analysis of Cyp-NS5A interaction (CypD-NS5A disruption)
Sequence (P30405 30-207, one chain of several): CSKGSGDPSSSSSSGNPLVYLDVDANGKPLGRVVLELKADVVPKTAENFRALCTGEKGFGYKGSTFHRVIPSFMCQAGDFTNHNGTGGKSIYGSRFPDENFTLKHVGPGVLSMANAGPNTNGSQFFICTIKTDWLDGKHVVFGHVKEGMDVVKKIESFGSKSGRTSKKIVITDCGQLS
readout: pIC50
To interpret pIC50, take it as minus log10 of a concentration measured in moles per litre.

**Query** Recall and state the measured pIC50 for CC[C@H]1C[C@H](C)[C@@]2(NC1=O)O[C@@H](C[C@H](O)[C@@H](C)CC/C=C/C=C(\C)[C@@H]1C/C=C/C=C/[C@H](O)[C@H](C)[C@@H](O)[C@@H](CCC(C)=O)C(=O)N[C@@H](C(C)C)C(=O)N[C@@H](Cc3cccc(O)c3)C(=O)N3CCC[C@H](N3)C(=O)O1)[C@H](C)[C@H](O)[C@@H]2C [Sanglifehrin A, 5, Sanglifehrin A, reference compound] .
**Result** 6.43
